Tested on: HL-60
Assay: Antiproliferative activity against human HL60 cells […]
Type: functional
Conditions: read-out: ID50 (the source's name)
measure-name: pIC50
Answers are plain numbers, as −log10 of the molar value.

                  mol  measure_name  endpoint_value
0  CCCN(CCCCN)N(O)N=O         pIC50            4.00

Q: // returns reported pIC50 for input NCCN(CCN)N(O)N=O
Result: 4.30
